# assayTarget: Transient receptor potential cation channel subfamily V member 1 (Rattus norvegicus, UniProt O35433)
# Sequence (O35433 whole entry): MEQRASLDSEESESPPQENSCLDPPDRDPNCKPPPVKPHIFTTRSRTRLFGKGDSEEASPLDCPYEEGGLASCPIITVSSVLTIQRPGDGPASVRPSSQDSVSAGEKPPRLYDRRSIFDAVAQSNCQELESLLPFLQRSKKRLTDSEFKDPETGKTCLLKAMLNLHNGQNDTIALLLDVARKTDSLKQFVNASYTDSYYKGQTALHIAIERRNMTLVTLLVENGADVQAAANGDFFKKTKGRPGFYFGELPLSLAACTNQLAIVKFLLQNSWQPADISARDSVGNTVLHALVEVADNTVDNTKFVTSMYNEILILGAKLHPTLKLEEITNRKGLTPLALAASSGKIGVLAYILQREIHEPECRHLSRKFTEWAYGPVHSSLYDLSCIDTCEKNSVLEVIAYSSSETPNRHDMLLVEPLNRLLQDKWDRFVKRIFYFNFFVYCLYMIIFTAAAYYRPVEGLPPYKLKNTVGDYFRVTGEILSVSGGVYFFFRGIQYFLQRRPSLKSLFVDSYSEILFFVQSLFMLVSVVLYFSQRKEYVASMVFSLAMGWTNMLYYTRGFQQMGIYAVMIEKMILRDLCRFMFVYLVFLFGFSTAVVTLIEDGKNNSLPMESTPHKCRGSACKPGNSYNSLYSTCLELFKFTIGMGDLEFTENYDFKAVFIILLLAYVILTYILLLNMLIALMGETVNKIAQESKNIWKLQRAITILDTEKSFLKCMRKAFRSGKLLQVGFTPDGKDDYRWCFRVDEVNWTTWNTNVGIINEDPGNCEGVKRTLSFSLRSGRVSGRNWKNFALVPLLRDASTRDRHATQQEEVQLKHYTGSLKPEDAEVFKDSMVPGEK

[
  {
    "compound": "CC(C)(C)c1ccc(CNC(=O)Cc2ccc(O)c(F)c2)cc1",
    "Ki": "808 nM"
  },
  {
    "compound": "CCCCCCCCNC(=O)C(C)c1ccc(O)c(OC)c1 (stereo not given)",
    "Ki": "744 nM"
  },
  {
    "compound": "CCCCCCCCCC(=O)NCc1ccc(O)c(OC)c1",
    "Ki": "864 nM"
  },
  {
    "compound": "COc1cc(CC(=O)NCCCc2ccc(C)c(C)c2)ccc1OCCN",
    "Ki": "930 nM"
  },
  {
    "compound": "COc1cc(CC(=O)NCc2ccc(C(C)(C)C)cc2)ccc1OCCN",
    "Ki": "1230 nM"
  }
]
